system: Wolbachia pipientis; test: Anti-Wolbachia Cell-Based Screen; type: functional; set-up: scale not given: in the data most compounds retested in dose-response had high values; settings: 5 µM
The campaign covered roughly 48,000 compounds. About 13,000 (27%) showed an effect of 50% or more. The list shows a part of the results.
assay_readout: Percent Effect (%)

compound	target_or_system	result_unit	meas_value
c1cc(-c2nccn2CCc2nc3c(s2)CCC3)ccn1	Wolbachia pipientis	%	7.441
CC(C)(C)C(=O)NCC(=O)NCC1CCCS1 (configuration not stated)	Wolbachia pipientis	%	-13.47
Cc1ccc(O)c(C(=O)NCCS(=O)(=O)Cc2ccccc2)c1	Wolbachia pipientis	%	0.3485
Cc1ccc(-c2cccc(-c3ccn(CCN4CCCC4)n3)c2)nn1	Wolbachia pipientis	%	-8.933
CC(C)CCC(=O)N1CC[C@@H]2[C@H](CC1)N(S(C)(=O)=O)CCS2(=O)=O	Wolbachia pipientis	%	94.59
CC(=O)N1CCS(=O)(=O)[C@@H]2CCN(S(=O)(=O)CC(C)C)CC[C@@H]21	Wolbachia pipientis	%	8.105
CC(C)CN1CC[C@@H]2[C@H](CC1)N(S(C)(=O)=O)CCS2(=O)=O.O=C(O)C(F)(F)F	Wolbachia pipientis	%	96.88
c1ccc(-c2nnc3sc(CCN4CCCC4)nn23)cc1	Wolbachia pipientis	%	117
CC(C)CC(=O)N1CC[C@@H]2[C@H](CC1)N(S(C)(=O)=O)CCS2(=O)=O	Wolbachia pipientis	%	1.552
CC(C)CN1CCS(=O)(=O)[C@@H]2CCN(S(=O)(=O)N(C)C)CC[C@@H]21.O=C(O)C(F)(F)F	Wolbachia pipientis	%	-16.7
Cc1nc(CCN2CCCCC2)n(-c2ccc(F)cc2)n1	Wolbachia pipientis	%	-12.73
Cc1ncsc1C(=O)N1CCCN(Cc2cscn2)CC1	Wolbachia pipientis	%	-2.478
Cc1ccc(CNC2CCN(CCc3ccncc3)CC2)s1	Wolbachia pipientis	%	-7.206
Cc1cnc(C(=O)N2CCN(Cc3csc(C)n3)CC2)cn1	Wolbachia pipientis	%	75.58
Cc1ncsc1C(=O)N1CCCC(c2nccn2Cc2cscn2)C1 (configuration not stated)	Wolbachia pipientis	%	-18.71
Cc1nc(CN2CCN(C(=O)c3scnc3C)CC2)cs1	Wolbachia pipientis	%	142.4
Cc1cnc(C(=O)N2CCCN(Cc3csc(C)n3)CC2)cn1	Wolbachia pipientis	%	7.438
Cn1cc(C2CCCN2C(=O)Cn2ccc3ccccc32)cn1 (configuration not stated)	Wolbachia pipientis	%	10.33
CC(C)(C)C(=O)N1CC[C@@H]2[C@H](CC1)N(S(C)(=O)=O)CCS2(=O)=O	Wolbachia pipientis	%	98.9
c1ccc(-c2cccc(-c3ccn(CCN4CCCCC4)n3)c2)nc1	Wolbachia pipientis	%	2.819
c1ccc(-c2nnc3sc(CCN4CCCCCC4)nn23)cc1	Wolbachia pipientis	%	117.6
c1cc(-c2nnc3sc(CCN4CCCC4)nn23)ccn1	Wolbachia pipientis	%	107.3
